test system: Trichophyton mentagrophytes; experiment: Antifungal activity against Trichophyton mentagrophytes ATCC 9972; format: functional
Response field label takes condition met when MIC is strictly below 8 µg/mL and condition not met in all other cases.

Here are 3 compounds together with their reported answers.
{"Compound": "CC1=CC(=O)N(c2ccccc2)C1=O", "Answer label": "condition not met"}
{"Compound": "O=C1C=CC(=O)N1Cc1ccccc1", "Answer label": "condition met"}
{"Compound": "O=C1C=CC(=O)N1c1ccc(F)cc1F", "Answer label": "condition met"}

Consider O=C(O)/C=C\C(=O)Nc1ccccc1 . Does its MIC lie strictly below 8 µg/mL?
condition not met

Consider O=C1C=CC(=O)N1c1ccc(Br)cc1 . Does its MIC lie strictly below 8 µg/mL?
condition met

Consider O=C1C=CC(O)N1CCCCc1ccccc1 (stereo unspecified) . Does its MIC lie strictly below 8 µg/mL?
condition not met

Consider O=C1C(Cl)=C(Cl)C(=O)N1c1ccccc1 . Does its MIC lie strictly below 8 µg/mL?
condition not met
